Molecular target: recombinant human GST-Syk (Homo sapiens (Human), UniProt P43405)
Assay: Homogeneous Time-Resolved Fluorescence (HTRF) Assay for the Recombinant Human Syk Enzyme
Assay type: biochemical
Conditions: recombinant human GST-Syk 5 pM, ATP 25 μM, 10-dose titration; read-out: rhSyk
Lab note - cut at 2 nM for IC50: 1 (yes) if strictly below, 0 (no) if not.

Example cases with answers are listed next.
- Compound: "C[C@@](O)(c1ncc(-c2cc(F)cc(Nc3nccc(C(F)(F)F)n3)c2)s1)[C@H]1CC[C@H](C(=O)O)CC1 (single isomer, unassigned)"
  Qualitative label: "1 (yes)"
- Compound: "Cc1cc(Nc2ncc(Cl)c(C)n2)cc(-c2cnc(C(C)(O)C3CCC(C(=O)O)CC3)s2)c1 (stereo not shown)"
  Qualitative label: "0 (no)"
- Compound: "Cc1cc(Nc2ncc(F)c(C)n2)cc(-c2cnc(C(O)(CO)C3CCC(C(=O)O)CC3)s2)c1 (stereo not shown)"
  Qualitative label: "0 (no)"

# input I wonder whether Cc1cc(Nc2nccc(C(F)(F)F)n2)cc(-c2cnc(C(O)C3CCC4(CC3)OCCO4)s2)c1 (stereo not shown) has IC50 below 2 nM. Can you tell?
# output 0 (no)

# input Below 2 nM on IC50? Entry CCCCC(=O)OC1CCC(C(C)(O)c2ncc(-c3cc(C)cc(Nc4ncc(F)c(OC)n4)c3)s2)CC1 (stereo not shown)
# output 0 (no)

# input Quick check: does CC(O)(c1ncc(-c2cc(Nc3nccc(C(F)(F)F)n3)cc(C3CC3)c2)s1)[C@H]1CC[C@H](C(=O)O)CC1 (single isomer, unassigned) have IC50 under 2 nM?
# output 1 (yes)

# input Hi there! Is IC50 for Cc1cc(Nc2nccc(C(F)F)n2)cc(-c2cnc(C(C)(O)[C@H]3CC[C@H](C(=O)O)CC3)s2)c1 (single isomer, unassigned) below 2 nM, do you know?
# output 1 (yes)

# input Below 2 nM on IC50? Entry CCCCC(=O)OC1CCC(C(C)(O)c2ncc(-c3cc(C)cc(Nc4nccc(C(F)(F)F)n4)c3)s2)CC1 (stereo not shown)
# output 0 (no)

# input Quick check: does COC(C)(c1ncc(-c2cc(C)cc(Nc3nccc(C(F)(F)F)n3)c2)s1)[C@H]1CC[C@H](C(=O)O)CC1 (stereo partly shown) have IC50 under 2 nM?
# output 1 (yes)

# input In plain terms, does Cc1cc(Nc2nccc(C)n2)cc(-c2cnc(CC3(O)CCC(C(=O)OC(C)(C)C)CC3)s2)c1 (single isomer, unassigned) [Example 5, Step 3 (trans isomer)] come in under 2 nM for IC50?
# output 0 (no)
